Target: human RORγ (Homo sapiens)
Construct: human, NM_005060.3 and from Ser253 to Lys518; expressed in transfected cells; host or cells: CHO cells (transient co-transfection with pG5-Luc reporter)
Sequence (P51449 253-518): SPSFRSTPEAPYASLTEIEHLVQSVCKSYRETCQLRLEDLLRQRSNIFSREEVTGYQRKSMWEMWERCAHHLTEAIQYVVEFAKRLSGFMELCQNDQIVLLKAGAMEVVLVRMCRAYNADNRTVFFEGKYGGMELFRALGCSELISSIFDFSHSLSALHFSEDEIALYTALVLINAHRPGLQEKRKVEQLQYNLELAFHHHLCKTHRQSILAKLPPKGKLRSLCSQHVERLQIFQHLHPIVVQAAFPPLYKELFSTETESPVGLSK
Assay: Luciferase reporter gene assay of inhibitory effect against RORγ transcriptional activity (GAL4-hRORγ plasmid in CHO cells)
Assay type: cell-based
Details: read-out: LUC EC50 (μM) hRORg
Measured parameter: EC50

[
  {
    "Compound": "Cc1c(Cl)cccc1NC(=O)CCc1nnc(CCOC(C)(C)C)n1C1CC1",
    "Target system": "human RORγ (Homo sapiens)",
    "EC50": "< 3 µM"
  },
  {
    "Compound": "Cc1ccc(C(F)(F)F)cc1NC(=O)CCc1nnc(CCC(C)C)n1C1CC1",
    "Target system": "human RORγ (Homo sapiens)",
    "EC50": "> 3 µM"
  },
  {
    "Compound": "Cc1ccc(NC(=O)C[C@H](CCO)c2nnc(CCCC(C)(C)C)n2C2CC2)c(C)c1",
    "Target system": "human RORγ (Homo sapiens)",
    "EC50": "< 3 µM"
  },
  {
    "Compound": "Cc1ccc(NC(=O)[C@H]2CN(C(=O)N(C)C)C[C@@H]2c2nnc(CCCC(C)(C)C)n2C2CC2)c(C)c1 (racemic)",
    "Target system": "human RORγ (Homo sapiens)",
    "EC50": "< 3 µM"
  },
  {
    "Compound": "Cc1ccc(NC(=O)C[C@H](CCC(=O)O)c2noc(-c3ccc(CC(C)C)o3)c2C2CC2)c(Cl)c1",
    "Target system": "human RORγ (Homo sapiens)",
    "EC50": "< 3 µM"
  }
]

Query: Report EC50, nothing else, for this compound: Cc1ccc(NC(=O)C[C@H](CCCC(=O)O)c2noc(-c3cc(CCC(C)C)on3)c2C2CC2)c(Cl)c1
Reply: < 3 µM

Query: Report EC50, nothing else, for this compound: CCn1c(CCC(=O)Nc2cc(Cl)cc(Cl)c2)nnc1C1Cc2ccccc2C1
Reply: > 3 µM

Reference source: patent US20160137639A1
